Biological target: Tumor necrosis factor receptor superfamily member 10B (Homo sapiens)
Test: caspase-8 TRAIL sensitization, hit retest, confirmation, cell-based, NB7+caspase-8, with/without TRAIL, luminescence panel (AID 651596)
Conditions: NB7 neuroblastoma + caspase-8, TRAIL sensitization, luminescence viability, with TRAIL, mean of runs, at 10 µM, stronger effect = higher value
Note to self: use True only for activity readings below 60%; a reading exactly at 60% still gets False.

Illustrative cases are given below, each with its answer.
>>> group_label("COc1ccc(C(=O)Nc2cc(C)on2)cc1")
"True"
>>> group_label("COc1cc(OC)cc(C(=O)Nc2nc3ccccc3[nH]2)c1")
"True"

Here's the next entry for you.
## Task Does O=C(Nc1ccc2c(c1)CCC2)c1ccc(F)cc1 have activity strictly under 60%?
## Result True

---

Target: Tumor necrosis factor receptor superfamily member 10B (Homo sapiens)
Assay: caspase-8 TRAIL sensitization, hit retest, confirmation, cell-based, NB7+caspase-8, with/without TRAIL, luminescence panel (AID 651596)
Settings: NB7 neuroblastoma + caspase-8, TRAIL sensitization, luminescence viability, with TRAIL, mean of runs, at 10 µM, stronger effect = higher value
activity reference

Previously resolved entries follow.
>>> experimental_result("O=C(CCl)Nc1ncc(S(=O)(=O)c2ccc([N+](=O)[O-])cc2)s1")
"95.9%"
>>> experimental_result("Nc1nn2cc(-c3ccccc3)nc2c2ccccc12")
"54.7%"

For the next question, use this compound.
## Task Report activity for CCCC(=O)Nc1ccc(C(=O)N/N=C/c2ccc[nH]2)cc1 tested on Tumor necrosis factor receptor superfamily member 10B (Homo sapiens).
## Result 98.5%

---

Assay: caspase-8 TRAIL sensitization, hit retest, confirmation, cell-based, NB7+caspase-8, with/without TRAIL, luminescence panel (AID 651596)
Settings: NB7 neuroblastoma + caspase-8, without TRAIL, luminescence viability, without TRAIL, mean of runs, at 10 µM
Recorded activity values for a group of compounds are listed next.
Return type: number; implicit unit %.

Consider the worked cases shown below.
>>> experimental_result("CN(C)c1ccc(/C=N/NC(=O)c2ccccn2)cc1")
65.2
>>> experimental_result("COc1ccccc1NC(=O)c1nc(S(=O)(=O)Cc2ccccc2)ncc1Cl")
99.2
>>> experimental_result("CCc1ccc(Nc2n[n+](-c3ccccc3)c(-c3ccc(N(CC)CC)cc3)s2)cc1")
41.2
>>> experimental_result("Cc1csc(NC(=O)c2ccc(OCC3CCCO3)cc2)n1 (stereo not given)")
64.9
>>> experimental_result("CC(=O)Nc1cccc(C(=O)OCC(=O)c2ccc3c(c2)OCO3)c1")
60.6

Now for the compound whose activity we want.
## Task Sample Nc1nc(-c2ccc(-c3ccccc3)cc2)cs1 — what was its activity?
## Result 50.7

---

Parameter: inhibition. Scope: all listed entries.
Experiment: luciferase luminescence interference by compounds, confirmation, artefact control for SENP inhibitor project, biochemical, single concentration, SENP8 reaction pre-completed (AID 488919);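 further: plate controls were DMSO wells with completed reaction for no effect and substrate without enzyme for full effect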
Conditions: Pre-incubated SENP8/Z-RLRGG-aminoluciferin, at 12.5 µM, stronger effect = higher value
This is one part of the list.
Numbers only here, please. The scale is %.

In the examples that follow, each entry is paired with its recorded inhibition.
>>> experimental_result("COc1ccc(NC(=O)Nc2cccc3cccnc23)cc1")
78.5
>>> experimental_result("COc1ccc(C(=O)Nc2ccccc2C(=O)N/N=C/c2ccccc2OC)cc1")
15.2
>>> experimental_result("COc1ccc(-n2nnnc2-c2nc3ccccc3s2)cc1")
1.6
>>> experimental_result("Cc1sc(NC(=O)c2ccc3ncsc3c2)c(C(N)=O)c1C")
-10.5
>>> experimental_result("Brc1ccc(-c2nnc(-c3ccccc3)o2)o1")
19.1
>>> experimental_result("O=C(c1ccc(CSc2ccccc2)cc1)N1CCCCCC1")
65.5
>>> experimental_result("Nc1ccccc1/C=N\\N=C/c1ccccc1N")
3.9
>>> experimental_result("CC(C)n1cnc2c(NCc3ccccc3)cc(OCC3CCN(C)CC3)cc21")
-4.2
>>> experimental_result("Cc1ccc2cc3cc(C(=O)N4CCCCCC4)oc3nc2c1")
47.7
>>> experimental_result("O=[N+]([O-])c1ccccc1N/N=C1\\CCc2ccccc21")
-0.8

## Task Could you tell me which inhibition is on file for Cc1cnc(NC(=O)c2ccccn2)s1 ?
## Result 67.2

## Task Requested read-out: inhibition. Entry: CC(C)CCNC(=O)c1ccc2c(Cl)c3c(nc2c1)CCC3
## Result 52.5

These measurements were taken from PubChem BioAssay.
